- TARGET SYSTEM: hSSTR2 (Homo sapiens)
- Construct: host or cells: 'Cells expressing hSSTR2'
- Sequence (P30874 whole entry): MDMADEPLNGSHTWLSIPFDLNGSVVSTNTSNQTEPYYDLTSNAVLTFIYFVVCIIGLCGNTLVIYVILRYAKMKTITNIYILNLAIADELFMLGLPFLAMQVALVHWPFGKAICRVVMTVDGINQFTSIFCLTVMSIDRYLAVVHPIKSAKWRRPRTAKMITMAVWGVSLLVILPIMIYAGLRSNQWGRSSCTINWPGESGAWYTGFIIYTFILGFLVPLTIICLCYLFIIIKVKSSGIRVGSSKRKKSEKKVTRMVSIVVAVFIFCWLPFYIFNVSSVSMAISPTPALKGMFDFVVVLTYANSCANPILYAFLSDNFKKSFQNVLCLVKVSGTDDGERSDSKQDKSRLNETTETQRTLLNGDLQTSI
- MEASUREMENT NOTES: Somatostatin receptor radioligand binding assay (hSSTR2);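 also: radioligand displacement on membranes of CHO-K1 cells stably transfected with human SSTR2, specific binding taken as total minus binding left with 1000 nM SRIF-14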
EXPERIMENTAL READOUT: pKi
Answers are plain numbers, as −log10 of the molar value.

Give the reported pKi for `C[C@@H](O)[C@@H]1NC(=O)[C@H](CCCCN)NC(=O)[C@@H](Cc2c[nH]c3ccccc23)NC(=O)[C@H](Cc2ccncc2)NC(=O)[C@H](Cc2ccccc2)NC(=O)[C@H](CCCNC(=N)N)NC(=O)[C@H](NCCSC[C@@H]2C[C@@H]3c4cccc5[nH]cc(c45)C[C@H]3N(C)C2)CCCCNC(=O)[C@H](Cc2ccccc2)NC1=O` (system: hSSTR2 (Homo sapiens)).
10.05
